The following compounds are shown together with reported IC50 values.
Target: UniProt P30968
Sequence (P30968 whole entry): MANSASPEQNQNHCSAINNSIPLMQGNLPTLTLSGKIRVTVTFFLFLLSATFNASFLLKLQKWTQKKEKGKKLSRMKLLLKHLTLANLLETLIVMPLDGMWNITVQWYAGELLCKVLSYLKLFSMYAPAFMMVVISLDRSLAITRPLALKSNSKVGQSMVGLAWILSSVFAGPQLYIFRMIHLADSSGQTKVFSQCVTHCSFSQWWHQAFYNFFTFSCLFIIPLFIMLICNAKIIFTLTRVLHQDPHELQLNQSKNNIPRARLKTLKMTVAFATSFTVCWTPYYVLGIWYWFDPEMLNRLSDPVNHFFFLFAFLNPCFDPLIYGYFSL
Assay: In vitro inhibition of human gonadotropin-releasing hormone expressed in HEK293 cells
Format: cell-based
*1 amine or outer side, *2 acyl side, *3 side chain or, on linkers, in order; H or OH if unused. Where a SMILES comes first, the peptide text is derived from it. [ ]: non-standard residue; d: D form. Phe(4-NH(5-NH2triazol-3-yl)) = Nc1nc(Nc2ccc(C[C@H](N)C(=O)O)cc2)n[nH]1; X1 = Nc1nc(Nc2ccc(C[C@@H](N[*:1])C(=O)[*:2])cc2)n[nH]1; dPhe(4-Cl) = N[C@H](Cc1ccc(Cl)cc1)C(=O)O; d2Nal = N[C@H](Cc1ccc2ccccc2c1)C(=O)O; Lys(iPr) = CC(C)NCCCC[C@H](N)C(=O)O; d3Pal = N[C@H](Cc1cccnc1)C(=O)O
Unit nM implied. Number only.

Use these answered entries as a reference point.
CC(=O)N[C@H](Cc1ccc2ccccc2c1)C(=O)N[C@H](Cc1ccc(Cl)cc1)C(=O)N[C@H](Cc1cccnc1)C(=O)N[C@@H](CO)C(=O)N[C@@H](Cc1ccc(NC(=O)[C@@H]2CCC(=O)N2)cc1)C(=O)N[C@H](Cc1ccc(NC(N)=O)cc1)C(=O)N[C@@H](CC(C)C)C(=O)N[C@@H](CCCCNC(C)C)C(=O)N1CCC[C@H]1C(=O)N[C@H](C)C(=O)O : 2
CC(=O)N[C@H](Cc1ccc2ccccc2c1)C(=O)N[C@H](Cc1ccc(Cl)cc1)C(=O)N[C@H](Cc1cccnc1)C(=O)N[C@@H](CO)C(=O)N[C@@H](Cc1ccc(NC(=O)NC(=O)[C@H](N)CC(N)=O)cc1)C(=O)N[C@H](Cc1ccc(NC(N)=O)cc1)C(=O)N[C@@H](CC(C)C)C(=O)N[C@@H](CCCCNC(C)C)C(=O)N1CCC[C@H]1C(=O)N[C@H](C)C(=O)O : 2
CC(=O)N[C@H](Cc1ccc2ccccc2c1)C(=O)N[C@H](Cc1ccc(Cl)cc1)C(=O)N[C@H](Cc1cccnc1)C(=O)N[C@@H](CO)C(=O)N[C@@H](Cc1ccc(NC(=O)C(N)CCN)cc1)C(=O)N[C@H](Cc1ccc(NC(N)=O)cc1)C(=O)N[C@@H](CC(C)C)C(=O)N[C@@H](CCCCNC(C)C)C(=O)N1CCC[C@H]1C(=O)N[C@H](C)C(=O)O (some centres not stated) : 3.16
CC(=O)N[C@H](Cc1ccc2ccccc2c1)C(=O)N[C@H](Cc1ccc(Cl)cc1)C(=O)N[C@H](Cc1cccnc1)C(=O)N[C@@H](CO)C(=O)N[C@@H](Cc1ccc(NC(=O)NC(=O)[C@H](N)CCC(N)=O)cc1)C(=O)N[C@H](Cc1ccc(NC(N)=O)cc1)C(=O)N[C@@H](CC(C)C)C(=O)N[C@@H](CCCCNC(C)C)C(=O)N1CCC[C@H]1C(=O)N[C@H](C)C(=O)O : 6.31
CC(=O)N[C@H](Cc1ccc2ccccc2c1)C(=O)N[C@H](Cc1ccc(Cl)cc1)C(=O)N[C@H](Cc1cccnc1)C(=O)N[C@@H](CO)C(=O)N[C@@H](Cc1ccc(Nc2n[nH]c(N)n2)cc1)C(=O)N[C@H](Cc1ccc(Nc2n[nH]c(N)n2)cc1)C(=O)N[C@@H](CC(C)C)C(=O)N[C@@H](CCCCNC(C)C)C(=O)N1CCC[C@H]1C(=O)N[C@H](C)C(N)=O (Ac-[d2Nal][dPhe(4-Cl)][d3Pal]S[Phe(4-NH(5-NH2triazol-3-yl))][X1]L[Lys(iPr)]P[dA]-NH2) : 1.26
CC(C)C[C@H](NC(=O)[C@@H](Cc1ccc(NC(N)=O)cc1)NC(=O)[C@H](Cc1ccc(NC(=O)C(N)CN)cc1)NC(=O)[C@H](CO)NC(=O)[C@@H](Cc1cccnc1)NC(=O)[C@@H](Cc1ccc(Cl)cc1)NC(=O)[C@H](N)Cc1ccc2ccccc2c1)C(=O)N[C@@H](CCCCNC(C)C)C(=O)N1CCC[C@H]1C(=O)N[C@H](C)C(=O)O (some centres not stated) : 3.16

Consider now this further compound.
Exam item: Tell me the measured IC50 of `CC(=O)N[C@H](Cc1ccc2ccccc2c1)C(=O)N[C@H](Cc1ccc(Cl)cc1)C(=O)N[C@H](Cc1cccnc1)C(=O)N[C@@H](CO)C(=O)N[C@@H](Cc1ccc(NCC(=O)n2cc(C)c(=O)[nH]c2=O)cc1)C(=O)N[C@H](Cc1ccc(NC(N)=O)cc1)C(=O)N[C@@H](CC(C)C)C(=O)N[C@@H](CCCCNC(C)C)C(=O)N1CCC[C@H]1C(=O)N[C@H](C)C(N)=O` , please.
Marked response: 2.51

Data provenance is ChEMBL document CHEMBL1139600.
